Provenance of the data: the supplement of paper PMC9112550

# maps each entry to its shrunken log2 fold change
test system: Escherichia coli TOP10; test: shrunken log2 fold change of peptide-encoding DNA abundance (4.5 h post-induction vs induction); higher = less antimicrobial activity (less host growth inhibition); conditions: time post-induction: 4.5 h; library: site-saturation at positions 5, 18, 19, 20
Answer as a number with no unit attached.

Sequence content: RRIRQRPPRLPRPRPRPTRLPRP
Value kind: shrunken log2 fold change
Value observed: 0.723

Sequence content: RRIRWRPPRLPRPRPRPNIIPRP
Value kind: shrunken log2 fold change
Value observed: -0.486

Sequence content: RRIRCRPPRLPRPRPRPDVCPRP
Value kind: shrunken log2 fold change
Value observed: -0.0548

Sequence content: RRIRRRPPRLPRPRPRPHVDPRP
Value kind: shrunken log2 fold change
Value observed: 0.027

Sequence content: RRIRIRPPRLPRPRPRPDTLPRP
Value kind: shrunken log2 fold change
Value observed: -0.658

Query :: Request: shrunken log2 fold change, test system Escherichia coli TOP10, entry RRIRRRPPRLPRPRPRPNWNPRP;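 also: peptides expressed intracellularly from a pBAD plasmid library in pooled LB shake-flask culture, induced with 0.3% L-arabinose, DNA abundance read by NGS, three biological replicates, DESeq2 with apeglm shrinkage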
Result :: -0.115

Query :: Next: RRIRNRPPRLPRPRPRPCHFPRP
Result :: -0.166

Query :: Next: RRIRKRPPRLPRPRPRPFCDPRP
Result :: 0.144

Query :: Next: RRIRRRPPRLPRPRPRPMIDPRP
Result :: -0.1

Query :: Next: RRIRTRPPRLPRPRPRPFCYPRP
Result :: -0.24
